B1: UFD1L (parent)
chain: EAGGRFVAFSGEGQSLRKKGRKP

- Variants of: B1
- ASSAY NOTES: protein stability index of a GFP-peptide fusion (GPS, HEK-293T) (PSI 1-6); higher = more stable;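 also: lentivirally expressed fusions sorted by FACS into six bins by GFP to DsRed ratio, PSI derived from sequencing read proportions per bin multiplied by bin number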
- ASSAY CONDITIONS: c terminus: native
PROPERTY: protein stability index
No unit in the answer, only the number.

Example entries begin here.
- ENTRY SEQUENCE: "EAGGRFVAFSPEGQSLRKKGRKP [G11P]"
  protein stability index: 2.21
- ENTRY SEQUENCE: "EAGGEFVAFSGEGQSLRKKGRKP [R5E]"
  protein stability index: 3.18

*Q* Recorded protein stability index for EAGGRFVAFSGEGASLRKKGRKP [Q14A] , please?
*A* 1.83

*Q* Report protein stability index for EAGGRFVAFSGEIQSLRKKGRKP [G13I] please.
*A* 1.28

*Q* Quick check: protein stability index of EAGGRFVAFSGEGQSLRCKGRKP [K18C] ?
*A* 2.11

*Q* # query: protein stability index of entry EAGGRFEAFSGEGQSLRKKGRKP [V7E]
*A* 2.91

*Q* Tell me the measured protein stability index of EAGGRFVAKSGEGQSLRKKGRKP [F9K] , please.
*A* 1.75

*Q* What does the record list as protein stability index for EAGGRFVAFSGEGQYLRKKGRKP [S15Y] ?
*A* 2.91

*Q* So what's the measured protein stability index for this one? EAGGRFVAFSGEGQSLRKKERKP [G20E]
*A* 2.78

*Q* Consider the variant EAGGRFVAFSGEGQSLRKKGRKC [P23C] and give its measured protein stability index.
*A* 3.15

*Q* For the variant EAGGRFVAFSGEGQSLRKKGCKP [R21C] , what protein stability index is on record?
*A* 3.45
